system: LXRb homodimer (NR concentration 270 nM); test: PBM binding z-score (relative to random genomic background probes); higher = stronger binding; sequences stand for … in GC…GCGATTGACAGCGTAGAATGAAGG
Reported Property: PBM binding z-score
Enter the number alone.

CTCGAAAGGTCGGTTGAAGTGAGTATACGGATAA :: 0.166
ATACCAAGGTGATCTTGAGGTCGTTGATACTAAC :: 0.411
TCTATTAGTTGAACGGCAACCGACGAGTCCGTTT :: 0.735

Param item = "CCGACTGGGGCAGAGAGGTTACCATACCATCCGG" ; retrieve measured PBM binding z-score.
-1.44

State the recorded PBM binding z-score for this entry: "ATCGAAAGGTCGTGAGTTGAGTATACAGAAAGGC"
0.743

Item under review: "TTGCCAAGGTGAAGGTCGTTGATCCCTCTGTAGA" . Reported PBM binding z-score?
-1.15

Sample "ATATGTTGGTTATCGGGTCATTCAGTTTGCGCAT" — what was its PBM binding z-score?
1.77

====

Recorded measurements of PBM binding z-score, one per entry
system: LXRb:RXRa (NR concentration 270 nM, RXRa partner concentration 90 nM); test: PBM binding z-score (relative to random genomic background probes); higher = stronger binding; sequences stand for … in GC…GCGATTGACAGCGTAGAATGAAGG
Number only, no unit.

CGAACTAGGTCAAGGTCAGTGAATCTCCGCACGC :: 2.95

Fill blank: measured PBM binding z-score of the sequence "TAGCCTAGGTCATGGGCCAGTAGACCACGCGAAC" is ____.
2.2

Fill in the blank: the reported PBM binding z-score of "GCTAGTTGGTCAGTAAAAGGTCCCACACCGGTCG" is ____.
-0.485

Find the recorded PBM binding z-score belonging to "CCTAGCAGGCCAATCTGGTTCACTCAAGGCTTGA" and report it.
-0.16

====

system: RARb homodimer (NR concentration 270 nM); test: PBM binding z-score (relative to random genomic background probes); higher = stronger binding; sequences stand for … in GC…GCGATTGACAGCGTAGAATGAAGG
Class field: derived from PBM binding z-score; ranges group 1: < 0.8; group 2: ≥ 0.8 and < 3; group 3: ≥ 3

# example entries with known answers
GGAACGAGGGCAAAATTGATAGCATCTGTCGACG :: group 1
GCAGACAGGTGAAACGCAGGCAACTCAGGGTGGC :: group 1
TATACAGGGTCAAAGTCCAGAGTACGAATGTCGA :: group 3

Lab log: "ACTATTAGTCGACTTAGGGCAACCGATACGACGC" — assign PBM binding z-score category
group 1

Class? Entry: "ATCGAAAGGTCGAAGGTTAGTATACCCACCCGAA"
group 2

Lab log: "AGAATGAGGTTAAGATCAGTGAAACAGAATACAT" — assign PBM binding z-score category
group 2

State the class of the sequence shown: "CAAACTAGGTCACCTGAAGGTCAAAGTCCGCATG"
group 3

Please report the category associated with "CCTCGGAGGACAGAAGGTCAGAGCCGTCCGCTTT" , nothing else.
group 3

The entry to classify is "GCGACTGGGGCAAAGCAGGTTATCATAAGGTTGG" ; which class holds it?
group 2

Exam item: assign "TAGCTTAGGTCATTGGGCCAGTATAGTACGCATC" to the correct category.
group 3

Bin? "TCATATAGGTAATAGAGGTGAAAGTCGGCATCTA"
group 2

Record "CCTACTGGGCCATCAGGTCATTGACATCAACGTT" — which class?
group 2

Quick check: band for "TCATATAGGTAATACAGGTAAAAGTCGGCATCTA"
group 1

Category lookup for the sequence "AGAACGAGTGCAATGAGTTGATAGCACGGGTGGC"
group 1

Assign a bin to "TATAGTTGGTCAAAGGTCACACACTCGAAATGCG"
group 3

Classify this sequence: "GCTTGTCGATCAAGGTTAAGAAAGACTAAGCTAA"
group 1

Into which category would you place "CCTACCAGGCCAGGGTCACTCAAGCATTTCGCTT" ?
group 2

Textbook exercise: identify the category of the sequence given here, "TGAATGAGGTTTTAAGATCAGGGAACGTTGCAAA" , according to its measured value.
group 1

Record "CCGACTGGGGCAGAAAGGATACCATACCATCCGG" — which class?
group 1

Just checking, what class would you give "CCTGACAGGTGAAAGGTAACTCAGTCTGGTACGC" here?
group 1

For the record "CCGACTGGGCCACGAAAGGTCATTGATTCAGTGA" , report the class its PBM binding z-score corresponds to.
group 3

Which bin, given its PBM binding z-score, does "TGTCAAACTTCAAAGGTAACGTAAGTATCCACAC" occupy?
group 1

====

test system: FXR:RXRa (NR concentration 270 nM, RXRa partner concentration 90 nM); assay: PBM binding z-score (relative to random genomic background probes); higher = stronger binding; sequences stand for … in GC…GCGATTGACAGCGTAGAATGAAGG
# PBM binding z-score annotations
API note: the answer field is a bare number with no unit suffix.

Past entries and their recorded results:
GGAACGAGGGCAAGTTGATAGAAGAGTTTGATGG :: 0.705
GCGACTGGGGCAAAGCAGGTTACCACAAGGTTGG :: 0.61
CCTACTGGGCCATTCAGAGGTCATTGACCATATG :: 3.07
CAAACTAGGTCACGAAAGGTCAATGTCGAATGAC :: 7.08
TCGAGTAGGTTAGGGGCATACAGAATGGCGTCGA :: 0.679
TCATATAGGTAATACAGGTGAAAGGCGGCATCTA :: 1.01
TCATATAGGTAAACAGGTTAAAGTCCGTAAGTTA :: 0.775
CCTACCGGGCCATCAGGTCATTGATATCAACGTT :: 1.4

Tell me the measured PBM binding z-score of "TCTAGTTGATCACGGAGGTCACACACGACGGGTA" , please.
2.88

// PBM binding z-score lookup, key: "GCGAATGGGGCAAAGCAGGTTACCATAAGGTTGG"
0.135

GET /values?readout=PBM binding z-score&item= "GCTTACGAGTCAAAGGTTATAGCATGAATAGAAT"
2.49

====

List of PBM binding z-score values.
test system: FXR:RXRa (NR concentration 270 nM, RXRa partner concentration 90 nM); test: PBM binding z-score (relative to random genomic background probes); higher = stronger binding; sequences stand for … in GC…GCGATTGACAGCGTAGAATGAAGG
Answer as a number with no unit attached.

Quick one: PBM binding z-score of "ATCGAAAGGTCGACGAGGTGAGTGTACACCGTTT" ?
4.72

Param item = "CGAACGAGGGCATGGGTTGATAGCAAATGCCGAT" ; retrieve measured PBM binding z-score.
0.548

For "TCATATAGGTAATACCGGTGAAAGTCGGCATCTA" , what is its reported PBM binding z-score?
0.519

====

system: PXR homodimer (NR concentration 270 nM); test: PBM binding z-score (relative to random genomic background probes); higher = stronger binding; sequences stand for … in GC…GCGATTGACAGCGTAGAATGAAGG
Reported Property: PBM binding z-score
When you answer, write just the number.

Completed entries (count: 5):
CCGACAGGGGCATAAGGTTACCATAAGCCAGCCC :: -0.195
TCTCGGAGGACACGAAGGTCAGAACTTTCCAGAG :: 1.09
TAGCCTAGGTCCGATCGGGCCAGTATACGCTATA :: -1.16
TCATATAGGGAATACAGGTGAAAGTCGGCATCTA :: 0.632
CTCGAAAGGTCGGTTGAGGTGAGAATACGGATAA :: 0.108

Which PBM binding z-score is reported for this sequence? "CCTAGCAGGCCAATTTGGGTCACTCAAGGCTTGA"
-0.236

Requested read-out: PBM binding z-score. Entry: "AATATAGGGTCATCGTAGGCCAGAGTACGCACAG"
0.973

====

tested on: LXRb homodimer (NR concentration 270 nM); test: PBM binding z-score (relative to random genomic background probes); higher = stronger binding; sequences stand for … in GC…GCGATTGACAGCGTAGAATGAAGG
Reported Property: PBM binding z-score
Form: value (number only, do not type unit).

Recorded results for 10 sequences are shown here.
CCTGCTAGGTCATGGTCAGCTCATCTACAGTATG :: 0.157
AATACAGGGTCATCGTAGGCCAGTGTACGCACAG :: 1.16
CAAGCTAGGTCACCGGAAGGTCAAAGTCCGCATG :: 0.898
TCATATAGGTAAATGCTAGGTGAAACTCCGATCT :: -0.00744
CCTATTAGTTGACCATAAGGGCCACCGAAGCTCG :: 0.659
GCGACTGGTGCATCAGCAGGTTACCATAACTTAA :: -1.02
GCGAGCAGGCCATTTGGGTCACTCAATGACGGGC :: -1.06
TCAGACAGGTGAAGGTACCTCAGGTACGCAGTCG :: -0.29
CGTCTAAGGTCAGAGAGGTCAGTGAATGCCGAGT :: 0.521
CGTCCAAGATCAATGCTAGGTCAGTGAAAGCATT :: 0.134

Give the measured PBM binding z-score of "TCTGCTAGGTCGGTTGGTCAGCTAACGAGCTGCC" .
0.368

Look up PBM binding z-score for this sequence: "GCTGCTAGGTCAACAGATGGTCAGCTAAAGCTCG"
-0.198

Can you look up the measured PBM binding z-score of "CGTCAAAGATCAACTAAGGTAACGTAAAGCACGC" for me?
-0.0274

Please give the measured PBM binding z-score for this sequence: "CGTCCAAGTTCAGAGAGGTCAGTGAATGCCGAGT"
0.431

If you can, please state the reported PBM binding z-score value of "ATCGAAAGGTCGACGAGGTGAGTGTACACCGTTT" .
0.198

// query PBM binding z-score value for entry "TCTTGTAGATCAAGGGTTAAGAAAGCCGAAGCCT"
-0.606

Which PBM binding z-score is reported for this sequence? "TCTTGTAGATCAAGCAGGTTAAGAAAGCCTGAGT"
-0.415

Please look up its PBM binding z-score: "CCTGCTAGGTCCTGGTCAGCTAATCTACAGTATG"
-1.07

Item under review: "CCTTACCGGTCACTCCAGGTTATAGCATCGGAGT" . Reported PBM binding z-score?
1.65

Can you look up the measured PBM binding z-score of "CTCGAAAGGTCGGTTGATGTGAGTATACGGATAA" for me?
0.455

Query (sequence): "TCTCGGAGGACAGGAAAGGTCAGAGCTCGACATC" ; field requested: PBM binding z-score
-0.216

Which measured PBM binding z-score value corresponds to "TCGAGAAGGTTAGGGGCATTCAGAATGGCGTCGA" ?
-0.293

Using the record for "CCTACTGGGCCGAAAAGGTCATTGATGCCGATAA" , report its PBM binding z-score.
0.134

Query (sequence): "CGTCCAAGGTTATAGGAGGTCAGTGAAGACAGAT" ; field requested: PBM binding z-score
0.402
